The reported measurements were obtained from patent US20060293223A1.

Catalogue of substances with associated MC1/MC4 selectivity
- Tested on: MC1/MC4
- assay-conditions: ratio MC1/MC4
Give the figure only, with no unit attached.

Known MC1/MC4 selectivity results, listed for orientation:
Item Ac-Tyr-Cit-cyclo[Cys-Glu-His-D-Phe-Arg-Trp-Cys]-NH2 [Compound 124] has what recorded MC1/MC4 selectivity?
18.11

Item Ac-Tyr-Arg-cyclo[Cys-Glu-His-D-Phe-Arg-Trp-Cys]-glycinol [Compound 114] has what recorded MC1/MC4 selectivity?
4.00

Item Ac-Tyr-Arg-cyclo[Cys-Glu-His-(4-OMe-D-Phe)-Arg-Trp-Cys]-NH2 [Compound 93] has what recorded MC1/MC4 selectivity?
1.48

Item Ac-Tyr-Cit-cyclo[Cys-Glu-(1-Me-His)-D-Phe-Arg-Trp-Cys]-NH2 [Compound 125] has what recorded MC1/MC4 selectivity?
25.08

Item Ac-Tyr-Arg-cyclo[Cys-Glu-(2-pyrazine-Ala)-D-Phe-Arg-Trp-Cys]-NH2 [Compound 105] has what recorded MC1/MC4 selectivity?
24.04

Item Ac-cyclo[Cys-Glu-(1-Me-His)-D-Phe-Arg-Trp-Cys]-NH2 [Compound 34] has what recorded MC1/MC4 selectivity?
11.52

Item N-(2-naphthalenesulfonyl)-cyclo[hCys-His-D-Phe-Arg-Trp-Cys]-NH2 [Compound 151] has what recorded MC1/MC4 selectivity?
14.00

Item Ac-cyclo[Cys-Glu-His-(4-Cl-D-Phe)-Arg-Trp-Cys]-NH2 [Compound 32] has what recorded MC1/MC4 selectivity?
66.88

Item N-cyclopentanecarbonyl-cyclo[hCys-His-D-Phe-Arg-Trp-penicillamine]-NH2 [Compound 171] has what recorded MC1/MC4 selectivity?
75.11

Item N-butyryl-cyclo[Cys-Glu-His-D-Phe-Arg-Trp-Cys]-NH2 [Compound 38] has what recorded MC1/MC4 selectivity?
28.16

Continuing:
Item Ac-Tyr-Arg-cyclo[Cys-Glu-(1-Me-His)-D-Phe-Arg-Trp-Cys]-NH2 [Compound 81] has what recorded MC1/MC4 selectivity?
101.69

###

- System: MC1/MC4;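 further: ratio of EC50 values obtained at MC1 versus MC4 receptors, with MC1 potency measured by luciferase reporter activity in stably transfected cells expressing human MC1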
- assay-conditions: ratio MC1/MC4
Catalogue of substances with associated MC1/MC4 selectivity
Give the figure only, with no unit attached.

Item Ac-Tyr-Arg-cyclo[Cys-Glu-His-D-Phe-Arg-Trp-Cys] alcohol [Compound 78] has what recorded MC1/MC4 selectivity?
9.00

Item cyclo[hCys-His-D-Phe-Arg-Trp-Cys]-OH [Compound 133] has what recorded MC1/MC4 selectivity?
31.29

Item cyclo[Cys-His-D-Phe-Arg-Trp-hCys]-NH2 [Compound 180] has what recorded MC1/MC4 selectivity?
30.38

Item Ac-Tyr-Arg-cyclo[Cys-Glu-His-D-Phe-Arg-Trp-Cys]-2-(2-aminoethoxy)ethanol [Compound 115] has what recorded MC1/MC4 selectivity?
2.00

Item Ac-cyclo[Cys-Glu-His-(4-Br-D-Phe)-Arg-Trp-Cys]-NH2 [Compound 33] has what recorded MC1/MC4 selectivity?
79.54

Continuing:
Item 5-guanidinovaleryl-cyclo[hCys-His-D-Phe-Arg-Trp-Cys]-NH2 [Compound 149] has what recorded MC1/MC4 selectivity?
51.85

Item N-valeryl-cyclo[Cys-Glu-His-D-Phe-Arg-Trp-Cys]-NH2 [Compound 39] has what recorded MC1/MC4 selectivity?
19.67

Item N-succinyl-Tyr-Arg-cyclo[Cys-Glu-His-D-Phe-Arg-Trp-Cys]-OH [Compound 131] has what recorded MC1/MC4 selectivity?
7.00
